assay-remarks: self-splicing fitness, log relative to wild type (ln ratio); higher = more splicing; Tetrahymena group I intron in knt gene, E. coli kanamycin selection, DiMSum; sequences stand for … in CUCUCU…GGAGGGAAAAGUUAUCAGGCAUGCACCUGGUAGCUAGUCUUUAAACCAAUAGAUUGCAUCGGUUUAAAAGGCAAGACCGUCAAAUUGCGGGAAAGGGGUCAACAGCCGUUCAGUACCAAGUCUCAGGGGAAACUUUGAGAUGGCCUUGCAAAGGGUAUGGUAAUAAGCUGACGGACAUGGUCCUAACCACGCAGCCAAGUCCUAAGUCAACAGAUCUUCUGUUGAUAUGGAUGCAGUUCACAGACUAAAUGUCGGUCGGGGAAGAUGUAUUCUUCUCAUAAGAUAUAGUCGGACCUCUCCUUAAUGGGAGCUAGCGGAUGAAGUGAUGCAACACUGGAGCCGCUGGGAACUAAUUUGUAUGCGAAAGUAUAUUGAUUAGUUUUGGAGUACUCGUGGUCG;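 also: selection with 25 µg/mL kanamycin versus none on LB agar overnight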
assay-context: 37 °C
measured-property: self-splicing fitness (ln)

These solved cases illustrate the format of a correct answer.
[
  {
    "residue-codes": "GACCAGCAAUAUUACGAGAC",
    "self-splicing fitness (ln)": -1.49
  },
  {
    "residue-codes": "CAAUAGCAAUAUUACGUGAU",
    "self-splicing fitness (ln)": -2.5
  },
  {
    "residue-codes": "UAGGAGCAAUAUUACGACCA",
    "self-splicing fitness (ln)": -0.415
  },
  {
    "residue-codes": "GAAGAGCAAUAUUACGAGUG",
    "self-splicing fitness (ln)": -2.81
  },
  {
    "residue-codes": "CGUAAGCAAUAUUACGAAAA",
    "self-splicing fitness (ln)": -1.49
  }
]

IN: Look up self-splicing fitness (ln) for this sequence: UAAGAGCAAUAUUACGCGCU
OUT: -3.35

IN: Look up self-splicing fitness (ln) for this sequence: CAUUAGCAAUAUUACGGUGG
OUT: 0.024

IN: Look up self-splicing fitness (ln) for this sequence: ACUGAGCAAUAUUACGUCGU
OUT: -1.96

IN: Look up self-splicing fitness (ln) for this sequence: GAGCAGCAAUAUUACGUGUC
OUT: -2.01

IN: Look up self-splicing fitness (ln) for this sequence: ACACAGCAAUAUUACGACUG
OUT: -0.67

====

assay-remarks: self-splicing fitness, log relative to wild type (ln ratio); higher = more splicing; Tetrahymena group I intron in knt gene, E. coli kanamycin selection, DiMSum; sequences stand for … in CUCUCU…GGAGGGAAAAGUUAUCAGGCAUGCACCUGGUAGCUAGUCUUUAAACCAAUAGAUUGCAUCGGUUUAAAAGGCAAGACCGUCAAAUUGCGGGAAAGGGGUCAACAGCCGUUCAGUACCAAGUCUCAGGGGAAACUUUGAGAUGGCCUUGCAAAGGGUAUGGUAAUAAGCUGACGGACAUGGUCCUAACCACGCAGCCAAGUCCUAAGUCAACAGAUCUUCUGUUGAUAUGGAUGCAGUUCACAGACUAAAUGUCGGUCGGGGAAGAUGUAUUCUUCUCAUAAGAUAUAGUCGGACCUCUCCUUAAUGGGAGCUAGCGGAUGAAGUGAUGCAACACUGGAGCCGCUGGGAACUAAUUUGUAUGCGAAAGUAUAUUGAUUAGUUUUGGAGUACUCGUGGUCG
assay-context: 37 °C
Reported self-splicing fitness (ln) by item:
// print number alone

These solved cases illustrate the format of a correct answer.
[
  {
    "residue-codes": "AACUAGCAAUAUUACGCAUG",
    "self-splicing fitness (ln)": -0.11
  },
  {
    "residue-codes": "GGGAAGCAAUAUUACGUCGU",
    "self-splicing fitness (ln)": -0.462
  },
  {
    "residue-codes": "ACCAAGCAAUAUUACGCGCA",
    "self-splicing fitness (ln)": -0.106
  },
  {
    "residue-codes": "ACAUAGCAAUAUUACGAGCU",
    "self-splicing fitness (ln)": -0.388
  },
  {
    "residue-codes": "CGUCAGCAAUAUUACGUUCG",
    "self-splicing fitness (ln)": -0.148
  },
  {
    "residue-codes": "GACAAGCAAUAUUACGAUAA",
    "self-splicing fitness (ln)": -0.345
  },
  {
    "residue-codes": "CUACAGCAAUAUUACGAUUG",
    "self-splicing fitness (ln)": -0.0365
  }
]

Attention now turns to another entry.
IN: Look up self-splicing fitness (ln) for this sequence: GGCCAGCAAUAUUACGAUGU
OUT: -1.92

====

assay-remarks: self-splicing fitness, log relative to wild type (ln ratio); higher = more splicing; Tetrahymena group I intron in knt gene, E. coli kanamycin selection, DiMSum; sequences stand for … in CUCUCU…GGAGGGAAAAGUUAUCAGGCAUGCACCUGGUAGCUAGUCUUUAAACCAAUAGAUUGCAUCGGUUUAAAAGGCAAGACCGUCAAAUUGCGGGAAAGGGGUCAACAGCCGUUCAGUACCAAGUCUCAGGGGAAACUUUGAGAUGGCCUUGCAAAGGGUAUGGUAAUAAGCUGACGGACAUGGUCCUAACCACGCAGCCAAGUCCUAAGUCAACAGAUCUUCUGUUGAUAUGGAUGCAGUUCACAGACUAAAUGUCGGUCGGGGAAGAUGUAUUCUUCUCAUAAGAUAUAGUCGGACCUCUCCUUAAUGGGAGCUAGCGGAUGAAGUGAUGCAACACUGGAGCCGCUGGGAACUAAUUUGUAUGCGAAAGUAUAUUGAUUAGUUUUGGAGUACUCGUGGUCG
assay-context: 30 °C
Range-based classes on measured self-splicing fitness (ln): lower bin (below -3), middle bin (-3 to below -2), upper bin (-2 or more)

Use these answered entries as a reference point.
[
  {
    "residue-codes": "CGGAAGCAAUAUUACGGAGU",
    "label-value": "lower bin"
  },
  {
    "residue-codes": "UUCGAGCAAUAUUACGCCGA",
    "label-value": "middle bin"
  },
  {
    "residue-codes": "AUCCAGCAAUAUUACGCCUC",
    "label-value": "upper bin"
  },
  {
    "residue-codes": "ACUAAGCAAUAUUACGGGAA",
    "label-value": "middle bin"
  },
  {
    "residue-codes": "AAGCAGCAAUAUUACGAACG",
    "label-value": "middle bin"
  }
]

IN: Which category fits this record: GGAUAGCAAUAUUACGCUGU
OUT: upper bin

IN: Which category fits this record: GUGUAGCAAUAUUACGACUC
OUT: upper bin

IN: Which category fits this record: UGUCAGCAAUAUUACGAAAU
OUT: middle bin

IN: Which category fits this record: UAUCAGCAAUAUUACGUGAC
OUT: upper bin

IN: Which category fits this record: GGAAAGCAAUAUUACGAAGU
OUT: middle bin

IN: Which category fits this record: UGCCAGCAAUAUUACGUUCG
OUT: upper bin

IN: Which category fits this record: ACCAAGCAAUAUUACGCUGG
OUT: middle bin

IN: Which category fits this record: AACCAGCAAUAUUACGGUUG
OUT: middle bin

IN: Which category fits this record: AUAGAGCAAUAUUACGAUUC
OUT: middle bin

IN: Which category fits this record: CUGUAGCAAUAUUACGCCGG
OUT: middle bin

IN: Which category fits this record: ACGCAGCAAUAUUACGGGCU
OUT: middle bin

IN: Which category fits this record: CUGAAGCAAUAUUACGGACG
OUT: upper bin

IN: Which category fits this record: CCGUAGCAAUAUUACGCCAU
OUT: lower bin

IN: Which category fits this record: ACUCAGCAAUAUUACGAAAC
OUT: middle bin

IN: Which category fits this record: CGCUAGCAAUAUUACGUACU
OUT: middle bin

IN: Which category fits this record: AGGAAGCAAUAUUACGUCAU
OUT: lower bin

IN: Which category fits this record: ACACAGCAAUAUUACGAAGC
OUT: lower bin

IN: Which category fits this record: CAUCAGCAAUAUUACGUCUC
OUT: lower bin

IN: Which category fits this record: UUACAGCAAUAUUACGAAUA
OUT: middle bin

====

assay-remarks: self-splicing fitness, log relative to wild type (ln ratio); higher = more splicing; Tetrahymena group I intron in knt gene, E. coli kanamycin selection, DiMSum; sequences stand for … in CUCUCU…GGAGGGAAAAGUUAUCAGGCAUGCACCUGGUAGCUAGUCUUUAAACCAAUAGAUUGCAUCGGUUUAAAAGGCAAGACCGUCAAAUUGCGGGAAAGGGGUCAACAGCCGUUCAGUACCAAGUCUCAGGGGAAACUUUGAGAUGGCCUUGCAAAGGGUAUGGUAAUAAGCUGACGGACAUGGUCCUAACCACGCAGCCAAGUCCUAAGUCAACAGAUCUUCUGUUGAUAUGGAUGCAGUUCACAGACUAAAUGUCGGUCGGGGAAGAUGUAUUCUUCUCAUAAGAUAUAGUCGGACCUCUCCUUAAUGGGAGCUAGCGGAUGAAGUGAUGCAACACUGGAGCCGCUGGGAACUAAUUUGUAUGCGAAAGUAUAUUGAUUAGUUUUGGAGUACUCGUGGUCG
assay-context: 30 °C
measured-property: self-splicing fitness (ln)
// print number alone

[
  {
    "residue-codes": "CCCUAGCAAUAUUACGUUCA",
    "self-splicing fitness (ln)": -3.05
  },
  {
    "residue-codes": "AGGAAGCAAUAUUACGGGCC",
    "self-splicing fitness (ln)": -3.5
  },
  {
    "residue-codes": "UUGAAGCAAUAUUACGUAUU",
    "self-splicing fitness (ln)": -2.69
  },
  {
    "residue-codes": "AACAAGCAAUAUUACGAACC",
    "self-splicing fitness (ln)": -1.27
  },
  {
    "residue-codes": "UCAGAGCAAUAUUACGUACG",
    "self-splicing fitness (ln)": -1.96
  },
  {
    "residue-codes": "ACGUAGCAAUAUUACGCAGG",
    "self-splicing fitness (ln)": -3.67
  }
]

IN: Look up self-splicing fitness (ln) for this sequence: UACCAGCAAUAUUACGCGCG
OUT: 0.11

IN: Look up self-splicing fitness (ln) for this sequence: GAAGAGCAAUAUUACGACAU
OUT: -2.22

IN: Look up self-splicing fitness (ln) for this sequence: CCCCAGCAAUAUUACGCCAU
OUT: -2.14
